Test system: rat hepatocytes
Protocol: Refer to the table below for the testing concentrations. Metabolites collected from the incubation reactions were measured by LC/MS/MS analysis. […] Upon collection of the reaction medium, an aliquot of 0.5 mg/mL MTT in KHB was added immediately to the remaining hepatocytes in each well and then incubated for approximately 30 minutes. […] An aliquot from each well was measured for absorbance at 540 nm on a 96-well flat bottom plate with a microplate reader and DMSO for background absorbance correction. […]
measure: Cytotoxicity to rat hepatocytes (in words)

> print(dat)
                                   molecule                    result
1                                NCCCCNCCCN           No cytotoxicity
2  Cc1cccc(C)c1NC(=O)C(C)N (stereo not shown) [tocainide]           No cytotoxicity
3                     NC12CC3CC(CC(C3)C1)C2  Significant cytotoxicity
4  CC(N)C12CC3CC(CC(C3)C1)C2 (stereo not shown)  Significant cytotoxicity
